assay: qHTS assay to identify small molecule agonists of the endoplasmic reticulum stress response signaling pathway (AID 1159516); conditions: ESRE-bla HeLa, ER stress beta-lactamase reporter, 5 h; series mostly up to 61 µM; further: on the % scale 0 is the no-effect control and ±100 the full control effect
Inconclusive results are not listed. The source made the active and inactive calls. The call rests on the fitted dose curve; in most records, active means well fitted activation curve with a large enough effect in the signal ratio in the repeat runs (not every such curve was filed as active); inconclusive means weak or mixed curves, or effect the other way; inactive means flat fitted curve, though single readings scatter; the % refers to the signal ratio.
REPORTED_METRIC: activation

Below are worked cases with known answers.
                                   compound  recorded_measurement
0  CC(=O)OC1CCC(C(C)(C)C)CC1 (stereo not drawn)              inactive
1                           Cc1ccc2ccccc2n1              inactive
2                         O=C1Nc2ccccc2C1=O              inactive
3                        Cc1ccc(NC(N)=O)cc1              inactive
4  CC(=O)Nc1ccc(OCCOCCOc2ccc(NC(C)=O)cc2)cc1              inactive
5  CCCCCC(CC)OC(=O)CCCOc1ccc(Cl)cc1Cl (stereo not drawn)              inactive
6                            CCCCCCCOC(C)=O              inactive
7  C[C@]12C=CC(=O)C=C1[C@@H](F)C[C@@H]1[C@@H]2[C@@H](O)C[C@@]2(C)[C@H]1CC[C@]2(O)C(=O)CO              inactive

Prompt line: Which activation is reported for this compound? `CC(=O)c1ccc(O)c(C(N)=O)c1`
Response line: inactive

Prompt line: Which activation is reported for this compound? COc1cc2nc(N3CCN(C(=O)C4CCCO4)CC3)nc(N)c2cc1OC (stereo not drawn)
Response line: inactive

Prompt line: Which activation is reported for this compound? CC(C)(C)NCC(O)COc1cccc2c1CCC(=O)N2 (stereo not drawn)
Response line: inactive

Prompt line: Which activation is reported for this compound? COC(=O)C(c1ccccc1Cl)N1CCc2sccc2C1 (stereo not drawn)
Response line: inactive

Prompt line: Which activation is reported for this compound? `O=C(O)CCC(=O)Nc1ccc(S(=O)(=O)Nc2nccs2)cc1`
Response line: inactive

Prompt line: Which activation is reported for this compound? `Cc1cc(C)c(C)c(C)c1`
Response line: inactive

Prompt line: Which activation is reported for this compound? `CCCC(=O)OC`
Response line: inactive

Prompt line: Which activation is reported for this compound? `NNC(=O)CCCCC(=O)NN`
Response line: inactive

Prompt line: Which activation is reported for this compound? `C=CCOC(=O)CCCCCCCC`
Response line: inactive

Prompt line: Which activation is reported for this compound? `COC(C)(C)CC(C)=O`
Response line: inactive

* * *

assay: qHTS RealTime-Glo MT Cell Viability Assay in HEK293 cells - 40 hour (AID 1224874); conditions: RealTime-Glo luminescence, hits give low values; further: on the % scale 0 is the no-effect control and ±100 the full control effect; nearly all actives have a fitted effect of over 50% in size
Records with an inconclusive call do not appear.
REPORTED_METRIC: max response (%)
Answer with a number only, understood to be in %.

Prompt line: Which max response is reported for this molecule? CC(=O)SCC(CC(=O)c1ccc(C)cc1)C(=O)O (stereo not given)
Response line: -0.0795

Prompt line: Which max response is reported for this molecule? `CC/C=C\CCOC(=O)c1ccccc1`
Response line: -28.3

Prompt line: Which max response is reported for this molecule? CC(C)C(=O)Nc1cccc(C2CN3CCSC3=N2)c1 (stereo not given)
Response line: 0.0338

Prompt line: Which max response is reported for this molecule? `CNC(=O)c1c(I)c(NC(C)=O)c(I)c(C(=O)O)c1I`
Response line: 3.75

Prompt line: Which max response is reported for this molecule? `COC(=O)c1ccccc1Cl`
Response line: 2.48

Prompt line: Which max response is reported for this molecule? `CCCCCCCOC(C)=O`
Response line: -2.34

Prompt line: Which max response is reported for this molecule? `N#CC1(N)CCCCC1`
Response line: 6.54

Prompt line: Which max response is reported for this molecule? `CCCCCC(=O)CC`
Response line: 19.7

Prompt line: Which max response is reported for this molecule? `CCOC(=O)CC(C(C)=O)C(C)=O`
Response line: 0.909

Prompt line: Which max response is reported for this molecule? `C=CCN(CC=C)CC=C`
Response line: 12.2

Prompt line: Which max response is reported for this molecule? `CCc1ncc(C)[nH]1`
Response line: 1.1

Prompt line: Which max response is reported for this molecule? `Nc1cc(S(=O)(=O)O)ccc1O`
Response line: 14.9

Prompt line: Which max response is reported for this molecule? CC(O)CCCCn1c(=O)c2c(ncn2C)n(C)c1=O (stereo not given)
Response line: 0.953

Prompt line: Which max response is reported for this molecule? `CC(=O)Nc1ccc(OCCOCCOc2ccc(NC(C)=O)cc2)cc1`
Response line: -1.67

Prompt line: Which max response is reported for this molecule? `O=Cc1ccccc1S(=O)(=O)O`
Response line: 7.86
